Molecular target: chemokine receptors on THP-1 cells
Assay: binding to chemokine receptors on THP-1 cells; given as association constant
pKd: −log10 of the molar value.
MEASUREMENT KIND: pKd

DYFETSSQCSKPGV [Pep2(1-14)[MIP1α]]    6.05 to 7.00
